Where these numbers come from: patent US20260242478A1

- Target or test system: T1, Anti-CD28 scFv (VH - linker 1 - VL) (biotinylated (site not stated))
- T1 construct: Biotinylated scFv captured on neutravidin coated plates in the panning ELISA
- T1 sequence (scFv, as listed by the source): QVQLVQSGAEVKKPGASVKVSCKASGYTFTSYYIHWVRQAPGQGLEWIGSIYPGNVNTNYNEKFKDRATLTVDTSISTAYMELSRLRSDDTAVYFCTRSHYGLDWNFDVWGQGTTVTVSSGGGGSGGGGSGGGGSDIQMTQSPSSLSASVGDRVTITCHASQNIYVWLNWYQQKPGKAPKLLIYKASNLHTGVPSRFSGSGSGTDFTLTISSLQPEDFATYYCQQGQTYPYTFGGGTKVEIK
- Method: phage ELISA; biotinylated anti-CD28 scFv on neutravidin plate, clonal phage supernatant, anti-M13-HRP;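 further: before the phage were added, wells were pre-incubated with soluble CD28 protein in blocking buffer, or with blocking buffer alone, and were not washed in between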
Measured endpoint: CD28 scFv signal
Answers are plain numbers.

Use these answered entries as a reference point.
>  <Binder>
MSWCPPYLWTVCYN [Phage-368]

>  <Experimental value>
1.1

$$$$
>  <Binder>
MDWCPRILWSDCFN [Phage-373]

>  <Experimental value>
0.847

$$$$
>  <Binder>
MDWCPRSLWAQCFY [Phage-364]

>  <Experimental value>
1.39

$$$$

Alright, here's another binder for you.
INPUT: Query CD28 scFv signal for NHWCPTTLWNRCVA [Phage-386]
OUTPUT: 0.078
